The measured values listed here are drawn from the supplement of paper PMC10981050.

Below, each entry is listed with its recorded cell viability.
tested on: MARIMO; assay: cell viability relative to vehicle control; higher = less cytotoxic; details: 10 µM; SRSF2 genotype: SRSF2 P95H/wt;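 further: after 48 h exposure read by CellTiter-Glo luminescence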
Counter-ions that a name gives are not always drawn.
Give just the numeric value; % need not be written.

These solved cases illustrate the format of a correct answer.
CC#CCn1c(N2CCC[C@@H](N)C2)nc2c1c(=O)n(Cc1nc(C)c3ccccc3n1)c(=O)n2C; 98
NC1=N[C@@](c2cccc(-c3cncnc3)c2)(c2ccnc(C(F)F)c2)c2cccc(F)c21; 80.1
CN(Cc1cnc2nc(N)nc(N)c2n1)c1ccc(C(=O)N[C@@H](CCC(=O)O)C(=O)O)cc1 [Abitrexate (Methotrexate)]; 93
Cc1cc(Nc2ncnc3ccc(NC4=NC(C)(C)CO4)cc23)ccc1Oc1ccn2ncnc2c1; 82.5
Nc1ccn([C@@H]2O[C@H](CO)[C@@H](O)[C@@H]2O)c(=O)n1 [Cytarabine hydrochloride]; 28.6
O=C(Nc1ccc(Oc2ccc(Cl)cc2)c(Cl)c1)c1cc(I)cc(I)c1O [Rafoxanide]; 101

Find the measured cell viability: item COC(=O)C1=C(C)NC(C)=C(C(=O)OC2CCCN(Cc3ccccc3)C2)C1c1cccc([N+](=O)[O-])c1 (stereo not drawn) [Benidipine hydrochloride] , target or system MARIMO. 76.6

Follow-up item: `Nc1nc(=O)[nH]cc1F` 103

Proceed to CN1C(CCl)Nc2cc(Cl)c(S(N)(=O)=O)cc2S1(=O)=O (stereo not drawn) [Methyclothiazide] 96.5

Same question, COC(=O)C1=COC(OC2OC(CO)C(O)C(O)C2O)C2C(C)CC(=O)C12O (stereo not drawn) [Hastatoside] this time 104
